Give Growth controlling degree (%) Japanese bulrush for every item shown.
- Tested on: japanese bulrush
- protocolDescription: Test Example 3: paddy pot test, application under submerged conditions
- Assay type: in vivo, Scirpus juncoides
- measurementParameters: active ingredient 250 g/ha; submerged application at 0.5 leaf stage; visually observed 14 days after application; 0 = non-treated, 100 = complete kill
One number for each entry, in %.

>>> recordedresult("CCN(C(=O)Cc1ccc(Cl)cc1)C(c1cnccc1C(F)(F)F)C(C)C (stereo not shown)")
95
>>> recordedresult("CC(C)C(c1cnccc1Cl)N(C)C(=O)Cc1ccc(Cl)c(Cl)c1 (stereo not shown)")
90
>>> recordedresult("CC(C)C(c1cnccc1C(F)(F)F)N(C)S(=O)(=O)c1ccc(F)cc1F (racemic)")
70

Continue with the molecule presented below.
Entry under test: CC(=CC(=O)N(C)C(c1cnccc1C(F)(F)F)C(C)C)c1ccccc1 (stereo not shown) . Its Growth controlling degree (%) Japanese bulrush was 95

* * *

Give Growth controlling degree (%) Redroot pigweed for every item shown.
- Tested on: redroot pigweed
- protocolDescription: Test Example 2: soil surface treatment, upland pot test
- Format: in vivo, Amaranthus retroflexus L.
- measurementParameters: active ingredient 500 g/ha, observed day 21, 0 = non-treated, 100 = complete kill
Numbers only, in %.

Some compounds with recorded Growth controlling degree (%) Redroot pigweed:
>>> recordedresult("CC(C)C(c1cnccc1C(F)(F)F)N(C)C(=O)Cc1cccs1 (stereo not shown) [I-258]")
90
>>> recordedresult("CC(C)C(c1cnccc1C(F)(F)F)N(C)C(=O)COc1ccc(F)cc1F (stereo not shown) [Compound I-246]")
50
>>> recordedresult("CCC(CC)C(c1cnccc1C(F)(F)F)N(C)C(=O)Cc1ccccc1 (stereo not shown) [I-262]")
70

Continue with the compound presented below.
Entry CC(C)C(c1cnccc1C(F)(F)F)N(C)C(=O)COc1cc(F)ccc1F (stereo not shown) [Compound I-245] under redroot pigweed had Growth controlling degree (%) Redroot pigweed of 50

* * *

- System: corn
- protocolDescription: Test Example 2: soil surface treatment, upland pot test
- Assay type: in vivo, Zea mays L.
- measurementParameters: active ingredient 500 g/ha, observed 20th to 28th day
Give Growth controlling degree (%) Corn for every item shown.
One number for each entry, in %.

>>> recordedresult("CCN(C(=O)Cc1ccc(C(F)(F)F)cc1)C(c1cnccc1C(F)(F)F)C(C)C (centres unmarked) [Compound I-79]")
10
>>> recordedresult("Cc1ccc(CC(=O)N(C)C(c2cnccc2C(F)(F)F)C(C)C)c(F)c1 (racemic) [I-109]")
10
>>> recordedresult("CC(C)C(c1cnccc1C(F)(F)F)N(C)C(=O)Nc1ccccc1 (centres unmarked) [Compound I-230]")
40
>>> recordedresult("CC(C)C(c1cnccc1Cl)N(C)C(=O)Cc1ccc(F)cc1 (centres unmarked) [I-67]")
40
>>> recordedresult("Cc1ccc(OC(C)C(=O)N(C)C(c2cnccc2C(F)(F)F)C(C)C)cc1 (mixture of isomers) [I-131]")
10

For the 7 compounds below, give their Growth controlling degree (%) Corn values.
1. CC(C)C(c1cnccc1C(F)(F)F)N(C)C(=O)Cc1ccc(C(F)(F)F)c(F)c1 (centres unmarked) [I-62]
2. CC(C)C(c1cnccc1C(F)(F)F)N(C)C(=O)Cc1ccc(F)c(C(F)(F)F)c1 (centres unmarked) [I-61]
3. CC(C)C(c1cnccc1Cl)N(C)C(=O)COc1ccccc1 (centres unmarked) [Compound I-84]
4. CC(C)C(=O)N(C)C(c1cnccc1C(F)(F)F)C(C)C (centres unmarked) [I-198]
5. CCN(C(=O)Cc1ccccc1)C(c1cnccc1Cl)C(C)C (centres unmarked) [Compound I-102]
6. CC(C)C(c1cnccc1C(F)(F)F)N(C)S(=O)(=O)c1ccc(Cl)cc1 (racemic) [I-125]
7. CCN(C(=O)Cc1ccc(C)cc1)C(c1cnccc1C(F)(F)F)C(C)C (centres unmarked) [I-101]

Response line:
1. 10
2. 10
3. 20
4. 70
5. 35
6. 10
7. 10
